// reported pKd per item
target: SARS-COV-2 RBD extracellular domain expressed with a C-terminal myc-myc-hexahistidine tag (SARS-COV-2 RBD-mmH) (SARS-CoV-2); experiment: SPR Biacore, mAb captured on anti-hFc, RBD-mmH analyte, 37 C
The value called pKd is obtained by taking minus log10 of the concentration in mol/L.

mAb14257 (antibody, V domains shown) VH: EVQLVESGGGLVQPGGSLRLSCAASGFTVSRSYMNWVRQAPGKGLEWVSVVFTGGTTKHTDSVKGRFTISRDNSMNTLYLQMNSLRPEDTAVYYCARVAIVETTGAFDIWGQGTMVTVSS VL: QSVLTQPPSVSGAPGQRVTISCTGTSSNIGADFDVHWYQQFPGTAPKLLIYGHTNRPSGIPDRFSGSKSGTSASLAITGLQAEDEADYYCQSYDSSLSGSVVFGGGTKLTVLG :: 8.63
mAb15158 (antibody, V domains shown) VH: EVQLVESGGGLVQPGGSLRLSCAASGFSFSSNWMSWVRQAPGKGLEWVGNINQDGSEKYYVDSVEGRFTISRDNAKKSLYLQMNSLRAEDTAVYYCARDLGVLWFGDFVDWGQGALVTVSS VL: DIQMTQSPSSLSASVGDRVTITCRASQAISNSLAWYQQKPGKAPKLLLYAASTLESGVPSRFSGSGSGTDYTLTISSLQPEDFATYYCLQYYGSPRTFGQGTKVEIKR :: 8.78

Next binder, please.
Request: // returns reported pKd for input mAb15170 (antibody, V domains shown) VH: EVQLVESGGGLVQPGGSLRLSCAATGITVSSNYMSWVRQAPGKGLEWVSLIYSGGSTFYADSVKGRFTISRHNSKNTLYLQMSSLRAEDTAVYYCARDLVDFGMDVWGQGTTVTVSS VL: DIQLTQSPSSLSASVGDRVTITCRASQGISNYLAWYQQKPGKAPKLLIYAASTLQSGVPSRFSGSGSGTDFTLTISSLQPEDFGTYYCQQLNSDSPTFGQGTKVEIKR
Response: 9.53

These data points were gathered from patent US20260069689A1.
